System: J82
Measurement Description: Effect on viability of J82 cells with FGFR3 K650E mutation at 10 uM after 72 hrs
Assay type: functional, Homo sapiens
Measured Activity, listed per entry.
# number only, unit % dropped from output

The examples below pair each entry with its known result.
Smiles String	Readout Name	Measurement Units	Result Value
COc1cc2c(c(OC)c1)C(=O)/C(=C/c1ccc(Cl)cc1)N2	Activity	%	94
COc1cc2c(c(OC)c1)C(=O)/C(=C/c1ncc[nH]1)N2	Activity	%	89
COc1cc2c(c(OC)c1)C(=O)/C(=C/c1c(F)cccc1Cl)N2	Activity	%	95
CCc1ccc(/C=C2\Nc3cc(OC)cc(OC)c3C2=O)cc1	Activity	%	99
COc1cc2c(c(OC)c1)C(=O)/C(=C/c1[nH]cnc1C)N2	Activity	%	90

Please look up its Activity: COc1cc2c(c(OC)c1)C(=O)/C(=C/c1ccccc1F)N2
97

----------
System: RT-112
Measurement Description: Effect on viability of RT112 cells overexpressing wild-type FGFR3 at 10 uM after 72 hrs
Type: functional, Homo sapiens
Measured Activity, listed per entry.

The examples below pair each entry with its known result.
Smiles String	Result Value
CCc1ccc(/C=C2\Nc3cc(OC)cc(OC)c3C2=O)cc1	97%
COc1cc2c(c(OC)c1)C(=O)/C(=C/c1[nH]cnc1C)N2	92%
COc1cc2c(c(OC)c1)C(=O)/C(=C/c1ccc(Cl)cc1)N2	93%
COc1cc2c(c(OC)c1)C(=O)/C(=C/c1ccccc1F)N2	48%
COc1cc2c(c(OC)c1)C(=O)/C(=C/c1ncc[nH]1)N2	92%

Here is another compound to look at.
Please look up its Activity: COc1cc2c(c(OC)c1)C(=O)/C(=C/c1c(F)cccc1Cl)N2
93%

Entry source: ChEMBL document CHEMBL1138383
